Entries and their measured pIC50 follow.
# Test system: MCF7
# assay notes: Cytotoxicity against human MCF7 cells after 48 hrs by MTT assay
# Assay type: functional, cell-based
# settings: MCF7, 48 h
pIC50: −log10 of the molar value.
readout kind: pIC50

compound: CC(=O)O[C@H]1C[C@@H]2C[C@@]3(C4=C2CC[C@@]2(O4)C(=O)[C@]45C[C@H]2C[C@H](OC(C)=O)[C@H]4[C@]2(C)[C@@H](OC(C)=O)C[C@H](O)C(C)(C)[C@H]2C(=O)[C@@H]5OC(C)=O)[C@@H]1[C@]1(C)[C@@H](OC(C)=O)C[C@H](OC(C)=O)C(C)(C)[C@H]1C(=O)[C@@H]3O
readout kind: pIC50
result: 5.38
--
compound: COC[C@@]1(C[C@@H]2C(=O)[C@]34C[C@H]2C[C@H](OC(C)=O)[C@H]3[C@]2(C)[C@@H](OC(C)=O)C[C@H](O)C(C)(C)[C@H]2C(=O)[C@@H]4O)C(=O)[C@]23C[C@H]1C[C@H](OC(C)=O)[C@H]2[C@]1(C)[C@@H](OC(C)=O)C[C@H](O)C(C)(C)[C@H]1C(=O)[C@@H]3O
readout kind: pIC50
result: < 5.00
--
compound: CC(=O)O[C@H]1C[C@@H]2C[C@@]3(CC(=O)[C@@H]4C(C)(C)[C@@H](O)C[C@H](OC(C)=O)[C@@]4(C)[C@H]13)C(=O)[C@]21CC[C@@]12C(=O)[C@]13C[C@H]2C[C@H](OC(C)=O)[C@H]1[C@]1(C)[C@@H](OC(C)=O)C[C@H](O)C(C)(C)[C@H]1C(=O)[C@@H]3OC(C)=O
readout kind: pIC50
result: < 5.00
--
compound: CC(=O)O[C@H]1C(=O)[C@@]2(C)[C@H]([C@H](OC(=O)c3ccccc3)[C@]3(O)C[C@H](OC(=O)[C@H](O)[C@@H](NC(=O)c4ccccc4)c4ccccc4)C(C)=C1C3(C)C)[C@]1(OC(C)=O)CO[C@@H]1C[C@@H]2O [PACLITAXEL]
readout kind: pIC50
result: > 8.10
--
compound: CC(=O)O[C@H]1C[C@@H]2C[C@@]3(C(=O)[C@]24CCC2=C(O4)[C@@]45CC(=O)[C@@H]6C(C)(C)[C@@H](OC(C)=O)C[C@H](O)[C@@]6(C)[C@@H]4C(=O)C[C@@H]2C5)[C@@H]1[C@]1(C)[C@@H](OC(C)=O)C[C@H](O)C(C)(C)[C@H]1C(=O)[C@@H]3OC(C)=O
readout kind: pIC50
result: < 5.00
--
compound: CC(=O)O[C@H]1C[C@@H]2C[C@@]3(C(=O)[C@]24CC[C@@]42C(=O)[C@]45C[C@H]2C[C@H](OC(C)=O)[C@H]4[C@]2(C)[C@@H](OC(C)=O)C[C@H](O)C(C)(C)[C@H]2C(=O)[C@@H]5O)[C@@H]1[C@]1(C)[C@@H](OC(C)=O)C[C@H](OC(C)=O)C(C)(C)[C@H]1C(=O)[C@@H]3OC(C)=O
readout kind: pIC50
result: < 5.00

====

# assay notes: Cytotoxicity against human HL60 cells after 48 hrs by MTT assay
# Assay type: functional, cell-based
# settings: HL-60, 48 h

compound: CC(=O)O[C@H]1C[C@@H]2C[C@@]3(C(=O)[C@]24CCC2=C(O4)[C@]45C[C@H]2C[C@H](OC(C)=O)[C@H]4[C@]2(C)[C@@H](OC(C)=O)C[C@H](O)C(C)(C)[C@H]2C(=O)[C@@H]5O)[C@@H]1[C@]1(C)[C@@H](OC(C)=O)C[C@H](O)C(C)(C)[C@H]1C(=O)[C@@H]3O
IC50: > 10 µM

compound: CC(=O)O[C@H]1C(=O)[C@@]2(C)[C@H]([C@H](OC(=O)c3ccccc3)[C@]3(O)C[C@H](OC(=O)[C@H](O)[C@@H](NC(=O)c4ccccc4)c4ccccc4)C(C)=C1C3(C)C)[C@]1(OC(C)=O)CO[C@@H]1C[C@@H]2O [PACLITAXEL]
IC50: < 0.008 µM
